biological target: PRKCD (human); assay: KINOMEscan competition binding; conditions: compound 10.0 µM
kinase still bound, per cent of control vs 80%: less than gives Fulfilled; not less than gives Not fulfilled.

smiles.repr | class.label
CS(=O)(=O)N1CCN(Cc2cc3nc(-c4cccc5[nH]ncc45)nc(N4CCOCC4)c3s2)CC1 | Not fulfilled
COc1cc(C(=O)N2CCC(N3CCN(C)CC3)CC2)ccc1Nc1ncc2c(n1)N(C)c1ccccc1C(=O)N2C | Fulfilled
N#CCNC(=O)c1ccc(-c2ccnc(Nc3ccc(N4CCOCC4)cc3)n2)cc1 | Fulfilled
COc1ccc(N(C(=O)Oc2c(C)cccc2C)c2ccnc(Nc3ccc(N4CCN(C)CC4)cc3)n2)c(OC)c1 | Fulfilled
CNC(=O)c1cc(Oc2ccc(NC(=O)Nc3ccc(Cl)c(C(F)(F)F)c3)cc2)ccn1 | Not fulfilled
C=CC(=O)Nc1ccc(CN(C(=O)Nc2c(Cl)c(OC)cc(OC)c2Cl)c2cc(Nc3ccc(N4CCN(C)CC4)cc3)ncn2)cc1 | Not fulfilled
CN(C)C/C=C/C(=O)Nc1ccc(C(=O)Nc2cccc(Nc3nccc(-c4cccnc4)n3)c2)cc1 | Not fulfilled
C[C@@H](Oc1cc(-c2cnn(C3CCNCC3)c2)cnc1N)c1c(Cl)ccc(F)c1Cl | Not fulfilled
O=C1NC(=O)/C(=C/c2ccc3nccc(-c4ccncc4)c3c2)S1 | Fulfilled
CCN1CCN(C(=O)Cc2ccc(Nc3ncc(F)c(Nc4ccc(C(=O)Nc5ccccc5Cl)cc4)n3)cc2)CC1 | Fulfilled
CCN(CC)CCCCNc1ncc2cc(-c3cc(OC)cc(OC)c3)c(NC(=O)NC(C)(C)C)nc2n1 | Not fulfilled
O=C(Nc1cccc(Nc2ncc(Br)c(NCCc3cnc[nH]3)n2)c1)N1CCCC1 | Fulfilled
COc1cc(N2CCN(C)CC2)ccc1Nc1ncc2c(n1)N(C)c1ccccc1C(=O)N2C | Not fulfilled
COc1cc2ncn(-c3cc(OCc4ccccc4C(F)(F)F)c(C(N)=O)s3)c2cc1OC | Not fulfilled
COCC(=O)NC/C=C/c1ccc2ncnc(Nc3ccc(Oc4ccc(C)nc4)c(C)c3)c2c1 | Not fulfilled
CCN(CC)CCCCNc1ncc2c(n1)N(C)C(=O)N(c1c(Cl)c(OC)cc(OC)c1Cl)C2 | Not fulfilled
COc1cc2ncnc(-n3nc(-c4ccccn4)nc3N)c2cc1OC | Fulfilled
CNC(=O)c1ccc(Nc2cc(Nc3ccccc3S(=O)(=O)C(C)C)c3cc[nH]c3n2)nc1 | Fulfilled
